SYSTEM_UNDER_TEST: human SSTR5 (Homo sapiens, UniProt P35346)
Construct: expressed in transfected cells
Sequence (P35346 whole entry): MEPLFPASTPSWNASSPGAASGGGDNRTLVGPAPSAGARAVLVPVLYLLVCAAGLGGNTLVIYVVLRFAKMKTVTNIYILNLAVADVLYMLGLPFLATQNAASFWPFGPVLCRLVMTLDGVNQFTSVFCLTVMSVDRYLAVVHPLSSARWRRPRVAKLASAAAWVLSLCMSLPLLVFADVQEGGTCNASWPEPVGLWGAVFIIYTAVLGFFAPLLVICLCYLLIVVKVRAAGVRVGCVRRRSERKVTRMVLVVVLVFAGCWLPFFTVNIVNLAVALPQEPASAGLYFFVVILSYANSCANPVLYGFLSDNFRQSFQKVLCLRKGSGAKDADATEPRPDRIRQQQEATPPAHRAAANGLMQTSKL
EXPERIMENT_NOTES: Human SSTR5 antagonist activity using intracellular cAMP concentration as indicator (somatostatin 14, Test Example 1)
Format: cell-based
CONDITIONS_USED: 1 μM test compound; 1 nM somatostatin 14 and 0.3 μM forskolin; CHO (dhfr-) cells expressing human SSTR5; HTRF cAMP; read-out: Inhibition rate (%) with respect to SSTR5 in concentration of 1 μM
EXPERIMENTAL_ENDPOINT: inhibition at 1 µM (%)

1) CCOc1cc(CN2CC3(CC(N4CCC(C)(C(=O)O)CC4)=NO3)C2)cc(OCC)c1-c1ccc(F)c(F)c1	80
2) CCCOc1cc(CN2CC3(CC(N4CCC(C)(C(=O)O)CC4)=NO3)C2)cc(C2CC2)c1-c1ccc(F)cc1	88
3) CCOc1cc(CN2CC3(CC(N4CCC(C)(C(=O)O)CC4)=NO3)C2)cc(C2CCC2)c1-c1ccc(F)cc1	111
4) CC1(C(=O)O)CCN(C2=NOC3(C2)CN(Cc2cc(OCC4(F)CC4)c(-c4ccc(F)cc4)c(C4CC4)c2)C3)CC1	109

Recorded values, source patent US9605000B2.
